- targetOfAssay: PDGFRB (Homo sapiens, UniProt P09619)
- Sequence (P09619 33-1106, species assumed): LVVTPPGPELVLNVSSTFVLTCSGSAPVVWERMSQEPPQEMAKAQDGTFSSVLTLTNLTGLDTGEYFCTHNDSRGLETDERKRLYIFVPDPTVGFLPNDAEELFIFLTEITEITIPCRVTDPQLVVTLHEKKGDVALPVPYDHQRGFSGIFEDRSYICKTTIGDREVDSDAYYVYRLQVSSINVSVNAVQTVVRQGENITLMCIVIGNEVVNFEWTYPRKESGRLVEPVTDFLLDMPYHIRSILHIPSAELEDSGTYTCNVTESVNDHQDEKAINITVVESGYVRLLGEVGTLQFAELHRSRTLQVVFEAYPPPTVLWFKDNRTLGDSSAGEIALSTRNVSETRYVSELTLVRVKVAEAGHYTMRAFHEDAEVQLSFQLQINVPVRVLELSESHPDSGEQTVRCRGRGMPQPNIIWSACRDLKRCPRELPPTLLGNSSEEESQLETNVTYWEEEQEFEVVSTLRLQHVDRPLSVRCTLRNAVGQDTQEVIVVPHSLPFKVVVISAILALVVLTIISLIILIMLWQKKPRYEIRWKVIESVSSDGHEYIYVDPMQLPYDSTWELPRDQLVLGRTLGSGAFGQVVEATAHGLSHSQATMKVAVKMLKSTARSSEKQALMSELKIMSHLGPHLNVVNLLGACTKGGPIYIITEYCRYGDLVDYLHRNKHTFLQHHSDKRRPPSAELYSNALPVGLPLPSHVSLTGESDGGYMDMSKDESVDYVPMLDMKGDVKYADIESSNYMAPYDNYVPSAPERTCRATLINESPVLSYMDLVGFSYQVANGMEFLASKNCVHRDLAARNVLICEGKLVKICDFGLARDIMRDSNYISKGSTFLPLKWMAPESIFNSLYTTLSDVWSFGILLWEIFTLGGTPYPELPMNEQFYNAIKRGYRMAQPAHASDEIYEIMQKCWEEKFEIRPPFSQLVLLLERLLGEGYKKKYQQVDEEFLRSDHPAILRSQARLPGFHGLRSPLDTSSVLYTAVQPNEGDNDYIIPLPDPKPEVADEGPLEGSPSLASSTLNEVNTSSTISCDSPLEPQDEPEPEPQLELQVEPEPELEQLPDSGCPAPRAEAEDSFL
reportedMetric: IC50

# IC50 of "CC[C@@H]1CN(C(=O)NCC(F)(F)F)C[C@@H]1c1cnc2cnc3[nH]ccc3n12" = > 10 µM

====

- targetOfAssay: TrkA (Homo sapiens)
- Sequence (P04629 33-796, species assumed): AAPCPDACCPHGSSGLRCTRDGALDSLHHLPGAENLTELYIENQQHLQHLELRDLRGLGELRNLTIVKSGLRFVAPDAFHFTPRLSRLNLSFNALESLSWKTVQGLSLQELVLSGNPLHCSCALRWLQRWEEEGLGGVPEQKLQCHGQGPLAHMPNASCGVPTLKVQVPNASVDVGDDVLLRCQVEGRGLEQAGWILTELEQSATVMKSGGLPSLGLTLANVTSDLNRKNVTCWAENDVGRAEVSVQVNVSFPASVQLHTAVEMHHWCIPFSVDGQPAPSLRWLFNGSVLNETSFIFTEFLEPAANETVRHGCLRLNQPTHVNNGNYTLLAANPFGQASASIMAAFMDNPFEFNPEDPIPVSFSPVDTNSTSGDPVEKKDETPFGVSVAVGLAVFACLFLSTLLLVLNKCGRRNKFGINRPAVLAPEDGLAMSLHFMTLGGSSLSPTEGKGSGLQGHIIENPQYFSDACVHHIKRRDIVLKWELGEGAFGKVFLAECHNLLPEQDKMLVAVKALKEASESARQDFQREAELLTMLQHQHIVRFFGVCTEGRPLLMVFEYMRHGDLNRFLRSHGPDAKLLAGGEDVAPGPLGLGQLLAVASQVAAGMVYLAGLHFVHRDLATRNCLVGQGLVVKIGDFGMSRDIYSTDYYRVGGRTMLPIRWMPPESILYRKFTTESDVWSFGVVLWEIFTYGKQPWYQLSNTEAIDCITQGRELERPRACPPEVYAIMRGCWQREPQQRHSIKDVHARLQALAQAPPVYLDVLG
pIC50: −log10 of the molar value.
reportedMetric: pIC50

# pIC50 of "CC[C@@H]1CN(C(=O)NCC(F)(F)F)C[C@@H]1c1cnc2cnc3[nH]ccc3n12" = < 5.00

====

- targetOfAssay: cMET (Homo sapiens)
- Sequence (P08581 25-1390): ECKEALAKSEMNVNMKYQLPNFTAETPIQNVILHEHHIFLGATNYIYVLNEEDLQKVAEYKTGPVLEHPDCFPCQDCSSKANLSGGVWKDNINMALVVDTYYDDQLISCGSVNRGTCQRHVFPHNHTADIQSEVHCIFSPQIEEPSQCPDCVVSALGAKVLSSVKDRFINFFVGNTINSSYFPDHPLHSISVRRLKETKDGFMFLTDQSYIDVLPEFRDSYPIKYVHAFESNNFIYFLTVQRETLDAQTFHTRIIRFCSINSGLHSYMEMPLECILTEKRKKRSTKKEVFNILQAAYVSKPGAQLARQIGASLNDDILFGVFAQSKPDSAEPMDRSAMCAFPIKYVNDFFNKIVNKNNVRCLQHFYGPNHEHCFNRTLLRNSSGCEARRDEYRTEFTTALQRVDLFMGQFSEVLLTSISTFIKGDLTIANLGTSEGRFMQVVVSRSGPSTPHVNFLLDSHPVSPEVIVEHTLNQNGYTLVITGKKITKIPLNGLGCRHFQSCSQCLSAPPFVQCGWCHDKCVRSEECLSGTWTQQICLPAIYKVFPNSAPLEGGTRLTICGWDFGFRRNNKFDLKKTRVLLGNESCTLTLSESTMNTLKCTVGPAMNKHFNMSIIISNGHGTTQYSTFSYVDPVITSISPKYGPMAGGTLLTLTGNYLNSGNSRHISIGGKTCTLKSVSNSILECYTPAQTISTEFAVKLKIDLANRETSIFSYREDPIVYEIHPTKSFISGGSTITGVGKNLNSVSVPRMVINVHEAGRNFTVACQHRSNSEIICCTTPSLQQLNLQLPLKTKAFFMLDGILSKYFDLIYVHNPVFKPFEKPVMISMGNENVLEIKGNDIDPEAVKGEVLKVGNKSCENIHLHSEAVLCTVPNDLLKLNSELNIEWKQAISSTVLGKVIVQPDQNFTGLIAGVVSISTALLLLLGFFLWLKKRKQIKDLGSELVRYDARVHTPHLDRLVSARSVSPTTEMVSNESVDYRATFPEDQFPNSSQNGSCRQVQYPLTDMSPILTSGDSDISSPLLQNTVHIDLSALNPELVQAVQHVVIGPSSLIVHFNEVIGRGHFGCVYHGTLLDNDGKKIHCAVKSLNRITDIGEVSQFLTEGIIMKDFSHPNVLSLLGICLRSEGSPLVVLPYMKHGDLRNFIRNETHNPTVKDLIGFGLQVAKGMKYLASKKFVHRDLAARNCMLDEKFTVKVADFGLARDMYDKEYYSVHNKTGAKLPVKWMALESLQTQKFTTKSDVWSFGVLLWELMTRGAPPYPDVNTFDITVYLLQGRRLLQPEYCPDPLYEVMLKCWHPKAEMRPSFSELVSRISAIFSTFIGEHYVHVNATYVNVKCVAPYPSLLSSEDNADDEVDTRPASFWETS
pIC50: −log10 of the molar value.
reportedMetric: pIC50

// pIC50 (cMET (Homo sapiens)) for "CC[C@@H]1CN(C(=O)NCC(F)(F)F)C[C@@H]1c1cnc2cnc3[nH]ccc3n12" = < 5.00
